Origin of the recorded values: patent US20260138988A1

target: SARS-CoV-2 3CL-protease (Severe acute respiratory syndrome coronavirus 2); assay: SARS-CoV-2 3C-Like (3CL) Protease Fluorescence Assay (FRET); assay type: biochemical; conditions: SARS-CoV-2 3CL-protease 10 nM, test compounds 0-10 μM, duplicate, read-out: IC50
The entries below are paired with their reported IC50.
QUANTITY KIND: IC50

COMPOUND	RESULT
CC(C)C[C@@H](C(=O)N1C[C@]2(C[C@H]1C#N)C(=O)Nc1ccccc12)N(C)C(=O)[C@H](C)NC(=O)C(F)(F)CC(C)C [Example 142]	< 100 nM
CN(C(=O)[C@H](CC1CC1)NC(=O)C(F)(F)C(F)(F)F)[C@@H](CC1CC1)C(=O)N1C[C@]2(C[C@H]1C#N)C(=O)Nc1ccccc12 [Example 347]	< 100 nM
CC(C)C[C@@H](C(=O)N1C[C@]2(C[C@H]1C#N)C(=O)Nc1ccccc12)N(C)C(=O)[C@H](C)NC(=O)C(F)(F)C(C)C [Example 276]	< 100 nM
CC(C)C[C@@H](C(=O)N1C[C@]2(C[C@H]1C#N)C(=O)Nc1ccccc12)N(C)C(=O)[C@H](C)NC(=O)C(F)(F)C(F)(F)F [Example 136]	< 100 nM
CC(C)(C)C[C@H](NC(=O)[C@H](CC1CC1)NC(=O)C1CC2(CCC2)C1)C(=O)N1C[C@]2(C[C@H]1C#N)C(=O)Nc1ccccc12 [Example 321]	< 100 nM
C[C@H](NC(=O)CCCC(F)(F)F)C(=O)N(C)[C@@H](CC(C)(C)C)C(=O)N1C[C@]2(C[C@H]1C#N)C(=O)Nc1ccccc12 [Example 264]	< 100 nM
